Measured values drawn from patent US12291518B2 for this set.

assay_target: THR alpha-LBD (Homo sapiens)
Construct: except that THR alpha-LBD of a final concentration 0.25 nM was used; purchased Invitrogen PV4687
Sequence (P10827 163-410 isoform P10827-2 limits assumed, other chains not shown): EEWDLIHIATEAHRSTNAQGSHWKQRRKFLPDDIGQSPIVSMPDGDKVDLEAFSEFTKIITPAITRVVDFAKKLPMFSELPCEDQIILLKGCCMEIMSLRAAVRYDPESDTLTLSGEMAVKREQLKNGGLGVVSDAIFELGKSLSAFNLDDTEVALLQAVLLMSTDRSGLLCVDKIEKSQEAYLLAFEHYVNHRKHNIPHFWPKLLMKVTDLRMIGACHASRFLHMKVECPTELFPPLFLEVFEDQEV
assay_details: THR-α Coactivator Peptide Recruitment Assay (LanthaScreen TR-FRET)
Format: biochemical
test_context: TR-FRET coactivator recruitment, THR alpha-LBD 0.25 nM; read-out: THRα EC50
pEC50: −log10 of the molar value.
Please go through the items and note down their pEC50.

Measured pEC50 of O=c1[nH]c(=O)n(-c2cc(Cl)c(Oc3ccc(O)c(S(=O)(=O)N4CC(O)C4)c3)c(Cl)c2)nc1C(F)F [Compound 40] : 6.70 to 8.70

// pEC50 lookup, compound = O=C(N1CCC1)C1(NS(=O)(=O)c2cc(Oc3c(Cl)cc(-n4nc(C(F)F)c(=O)[nH]c4=O)cc3Cl)ccc2O)CC1 [Compound 38] , result: 6.70 to 8.70

Given item O=c1[nH]c(=O)n(-c2cc(Cl)c(Oc3ccc(O)c(S(=O)(=O)N[C@H]4C[C@@H](O)C4)c3)c(Cl)c2)nc1C(F)F [Compound 42] , the value recorded as its pEC50 is 6.70 to 8.70

Item: O=c1[nH]c(=O)n(-c2cc(Cl)c(Oc3cc(S(=O)(=O)NC[C@H]4C[C@H](O)C4)c(O)cn3)c(Cl)c2)nc1C(F)F [Compound 133] | pEC50: < 6.00

get_value(item= COCCNS(=O)(=O)c1cc(Oc2c(Cl)cc(-n3nc(C(F)F)c(=O)[nH]c3=O)cc2Cl)ccc1O [Compound 65] , readout=pEC50) returns 6.70 to 8.70

So, O=c1[nH]c(=O)n(-c2cc(Cl)c(Cc3ccc(O)c(S(=O)(=O)N[C@H]4C[C@H](O)C4)c3)c(Cl)c2)nc1C(F)F [Compound 97] ? Its pEC50 was 6.70 to 8.70

Please fill in: pEC50 reported for O=c1[nH]c(=O)n(-c2cc(Cl)c(Oc3cc(S(=O)(=O)NC45CCC(O)(C4)C5)c(O)cn3)c(Cl)c2)nc1C(F)F [Compound 159] = 6.00 to 6.70

Data point: O=C(N1CCCC1)C1(NS(=O)(=O)c2cc(Oc3c(Cl)cc(-n4nc(C(F)F)c(=O)[nH]c4=O)cc3Cl)ncc2O)CC1 [Compound 118] ; pEC50 = < 6.00

Input O=C(NC1CCC1)c1cc(Oc2c(Cl)cc(-n3nc(C(F)F)c(=O)[nH]c3=O)cc2Cl)c(F)cc1O [Compound 11] . Output pEC50: < 6.00

Value of measured pEC50 for the entry O=c1[nH]c(=O)n(-c2cc(Cl)c(Oc3cc(S(=O)(=O)NCC(F)F)c(O)cn3)c(Cl)c2)nc1C(F)F [Compound 111] : 6.70 to 8.70

Lab note: measured pEC50 of O=C(NC1CC(F)(F)C1)c1cc(Oc2c(Cl)cc(-n3nc(C(F)(F)F)c(=O)[nH]c3=O)cc2Cl)ccc1O [Compound 3] was < 6.00

Noted for O=c1[nH]c(=O)n(-c2cc(Cl)c(Oc3ccc(O)c(S(=O)(=O)N4CC[C@H](O)C4)c3)c(Cl)c2)nc1C(F)F [Compound 77] : its pEC50 reads 6.70 to 8.70

Please fill in: pEC50 reported for O=c1[nH]c(=O)n(-c2cc(Cl)c(Oc3ccc(O)c(S(=O)(=O)NC4CC4)c3)c(Cl)c2)nc1C(F)F [Compound 14] = > 8.70
